- measured.on: Recombinant human furin (human), P09958
- Sequence (P09958 108-714 limits assumed): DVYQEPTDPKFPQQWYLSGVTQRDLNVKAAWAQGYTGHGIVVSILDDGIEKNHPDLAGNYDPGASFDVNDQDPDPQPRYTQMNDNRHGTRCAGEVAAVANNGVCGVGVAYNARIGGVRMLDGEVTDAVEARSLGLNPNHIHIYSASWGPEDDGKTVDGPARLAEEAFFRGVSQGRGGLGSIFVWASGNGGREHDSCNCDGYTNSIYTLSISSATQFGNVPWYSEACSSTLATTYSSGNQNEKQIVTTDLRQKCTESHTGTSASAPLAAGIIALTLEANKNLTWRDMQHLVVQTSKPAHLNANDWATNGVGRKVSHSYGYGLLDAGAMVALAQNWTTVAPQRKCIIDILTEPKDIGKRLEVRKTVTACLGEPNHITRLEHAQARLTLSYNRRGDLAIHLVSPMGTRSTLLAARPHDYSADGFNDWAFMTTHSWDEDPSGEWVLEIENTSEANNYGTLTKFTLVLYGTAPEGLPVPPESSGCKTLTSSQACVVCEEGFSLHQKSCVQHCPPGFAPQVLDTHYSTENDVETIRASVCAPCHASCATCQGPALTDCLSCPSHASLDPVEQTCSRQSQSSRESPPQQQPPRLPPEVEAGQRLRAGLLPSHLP
- experimental.protocol: furin, Pyr-RTKR-AMC cleavage
property.label: pKi
Scale for pKi: -log10 of concentration given in mol/L; no unit attached.

Before answering, review these 2 worked examples.
{"binder": "RRKKRT (modifications not checked)", "observed.measurement": 7.49}
{"binder": "RKKRT (modifications not checked)", "observed.measurement": 6.00}

Continue with the binder presented below.
q: Output pKi of RRRKKRT (modifications not checked)
a: 7.75
